The measured values listed here are drawn from patent US20180244758A1.

# TARGET ENTITY: T1, EBOV GP (Ebola virus (EBOV), UniProt Q05320 33-637)
# T1 sequence: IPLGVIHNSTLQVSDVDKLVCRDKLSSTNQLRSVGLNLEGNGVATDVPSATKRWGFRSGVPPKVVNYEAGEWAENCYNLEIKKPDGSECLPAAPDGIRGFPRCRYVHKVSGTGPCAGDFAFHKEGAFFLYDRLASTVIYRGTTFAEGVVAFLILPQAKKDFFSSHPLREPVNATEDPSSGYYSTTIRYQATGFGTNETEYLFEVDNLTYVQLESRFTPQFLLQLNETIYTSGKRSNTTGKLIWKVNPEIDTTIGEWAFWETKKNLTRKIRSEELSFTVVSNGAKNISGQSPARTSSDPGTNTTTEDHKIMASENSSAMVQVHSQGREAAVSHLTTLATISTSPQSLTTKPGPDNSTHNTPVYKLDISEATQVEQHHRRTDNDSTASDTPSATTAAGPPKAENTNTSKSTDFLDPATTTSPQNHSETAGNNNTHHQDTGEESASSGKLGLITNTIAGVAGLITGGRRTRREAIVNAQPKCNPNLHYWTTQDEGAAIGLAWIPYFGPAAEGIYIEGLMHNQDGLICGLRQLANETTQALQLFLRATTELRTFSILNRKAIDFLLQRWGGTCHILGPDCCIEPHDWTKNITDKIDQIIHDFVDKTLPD
Listing: Kd of selected binders
MEASUREMENT LABEL: Kd (nM)

BINDER	MEASUREMENT LABEL	RESULT UNITS	RELATION	RESULT VALUE
mAb PE-24 (antibody, V domains shown) VH: EVQLVESGGGLVQPGGSLRLSCAASGFTFSSYAMSWVRQAPGKGLEWVSEISGLGGSTYYADSAKGRFTISRDNSKSTLYLQMNSLRAEDTAVYYCAKDHRVWAPGYYFDHWGQGTLVTVSS VL: DIVLTQSPSTLSASVGDRVTITCRASQSISSWLAWYQQKPGKAPKLLIYDASSLESGVPSRFSGSGSGTEFTLTISSLQPDDFATYFCQQYNRSPTFGGGTKVEIK	Kd	nM	=	1
mAb PE-16 (antibody, V domains shown) VH: QVQLVQSGAEVTKPGASVKVSCKASGYTFTTYYMHWVRQAPGQGLEWVGIINPSGGITRYAQKFQGRVTLTRDTSTTTVYMELSSLRSEDTAVYYCARDRYPVLFATDYGMDVWGQGTTVTVSS VL: DIVMTQSPATLSLSPGERATLSCRASQSVSGYLAWYQQKPGQAPRLLIYDASNRATGIPARFSGSGSGTDFTLTISSLEPEDFAVYYCQQRSIWPPGVTFGGGTKVEIK	Kd	nM	=	0.16
mAb PE-47 (antibody, V domains shown) VH: EVQLVESGGGLVKPGGSLRLSCAASGFTFSNAWMSWVRQAPGEGLEWVGRIKSKTDGGTIDYAAPVKGRFTISRDDSKNTVYLQMTSLKTEDTAVYYCTTYTEDMQYFDWLLRGGETFDYWGQGTLVTVSS VL: DIQMTQSPSSLSASVGDRVTITCRASQYISTYLNWYQQKPGKAPKLLIYAAYNLQSGVPSRFSGSGSGTDFTLTISSLQPEDFATYYCQQSYSTPGRYTFGQGTKVEIK	Kd	nM	=	3.5
mAb PE-87 (antibody, V domains shown) VH: QVQLVQSGVTLVQPGGSLRVSCAASGFTFSSYAMSWVRQAPGKGLEWVSAISGLGGSTYYADSVKGRFTISRDNSKNTLYLQMNSLRAEDTAVYYCAKDHRVWAAGYHFDYWGQGALVTVSS VL: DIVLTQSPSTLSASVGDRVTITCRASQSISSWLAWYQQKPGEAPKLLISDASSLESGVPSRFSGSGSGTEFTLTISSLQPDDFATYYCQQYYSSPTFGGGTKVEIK	Kd	nM	<	0.01
